- experimental.system: JAK1 (Homo sapiens, UniProt P23458)
- Construct: purchased Invitrogen
- Sequence (P23458 whole entry): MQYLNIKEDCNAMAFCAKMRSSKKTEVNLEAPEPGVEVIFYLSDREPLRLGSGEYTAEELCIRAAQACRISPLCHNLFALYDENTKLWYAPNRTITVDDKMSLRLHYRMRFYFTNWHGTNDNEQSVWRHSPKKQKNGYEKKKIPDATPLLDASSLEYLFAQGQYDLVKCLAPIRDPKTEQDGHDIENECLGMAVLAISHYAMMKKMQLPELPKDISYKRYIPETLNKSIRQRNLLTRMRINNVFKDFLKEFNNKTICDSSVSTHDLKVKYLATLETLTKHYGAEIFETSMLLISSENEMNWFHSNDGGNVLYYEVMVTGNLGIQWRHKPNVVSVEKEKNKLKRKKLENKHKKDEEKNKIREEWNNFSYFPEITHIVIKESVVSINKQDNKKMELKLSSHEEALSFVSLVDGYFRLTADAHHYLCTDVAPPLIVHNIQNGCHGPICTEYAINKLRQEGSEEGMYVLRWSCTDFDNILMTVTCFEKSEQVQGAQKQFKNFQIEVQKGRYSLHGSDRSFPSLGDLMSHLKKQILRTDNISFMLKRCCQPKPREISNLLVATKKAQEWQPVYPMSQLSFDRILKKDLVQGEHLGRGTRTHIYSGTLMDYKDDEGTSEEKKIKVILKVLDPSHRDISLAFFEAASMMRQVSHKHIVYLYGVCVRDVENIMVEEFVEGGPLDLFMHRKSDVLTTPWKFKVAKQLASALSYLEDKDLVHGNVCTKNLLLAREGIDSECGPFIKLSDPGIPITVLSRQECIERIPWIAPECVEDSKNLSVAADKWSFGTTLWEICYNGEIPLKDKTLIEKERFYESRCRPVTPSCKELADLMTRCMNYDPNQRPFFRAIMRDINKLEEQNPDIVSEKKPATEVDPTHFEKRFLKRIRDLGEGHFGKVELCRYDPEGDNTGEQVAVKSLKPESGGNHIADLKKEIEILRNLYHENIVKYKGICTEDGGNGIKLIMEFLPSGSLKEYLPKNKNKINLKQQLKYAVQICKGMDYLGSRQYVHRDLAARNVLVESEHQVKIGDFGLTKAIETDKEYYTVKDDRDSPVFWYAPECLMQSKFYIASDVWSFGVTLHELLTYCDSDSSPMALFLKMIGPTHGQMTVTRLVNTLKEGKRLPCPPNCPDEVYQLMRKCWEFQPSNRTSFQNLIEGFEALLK
- assay.info: JAK1 enzyme inhibition test (LANCE method)
- Format: biochemical
- condition.summary: test compound 1 μM; read-out: Inhibitory rate (%) JAK1 1 μM
metric: inhibition at 1 µM (%)

Example entries begin here.
1) COC(=O)c1cc(-c2nn(C3CCOCC3)c3cc[nH]c(=O)c23)cs1 [Example 21]: 97
2) O=c1[nH]ccc2c1c(-c1ccc(F)cc1)nn2C1CCCC1 [Example 54]: 91
3) CN(C)C(=O)c1cc(-c2nn(C3CCCC3)c3cc[nH]c(=O)c23)cs1 [Example 286]: 98
4) O=c1[nH]ccc2c1c(-c1ccc3nonc3c1)nn2C1CCCC1 [Example 59]: 66

[1] O=c1[nH]ccc2c1c(-c1cccc(CO)c1)nn2-c1c(F)cccc1F [Example 278]
[2] O=c1[nH]ccc2c1c(C1=CCOCC1)nn2C1CCCC1 [Example 42]
Problem: Please let me know which one, 1 or 2 , has a lower measured inhibition at 1 µM value. Kindly state the label of the option you pick.
Solution: 2

====

- experimental.system: JAK1 (Homo sapiens, UniProt P23458)
- Construct: purchased Invitrogen
- assay.info: JAK1 enzyme inhibition test (LANCE method)
- Type: biochemical
- condition.summary: test compound 10 μM (Ex. 182-220), beside Tyk2 1 μM; read-out: Inhibitory rate (%) JAK1 10 μM
metric: inhibition at 10 µM (%)

[I] O=C(NN1CCOCC1)c1cc(-c2nn(-c3c(F)cccc3F)c3c(Cl)c[nH]c(=O)c23)cs1
[II] O=c1[nH]cc(Cl)c2c1c(-c1ccc(N3CCOCC3)c(F)c1)nn2-c1c(F)cccc1F
Problem: Compare I and II by numeric inhibition at 10 µM and name the larger one. Kindly state the label of the option you pick.
Solution: I

====

- experimental.system: JAK1 (Homo sapiens)
- Construct: purchased Invitrogen
- assay.info: JAK1 enzyme inhibition test (LANCE method)
- Assay type: biochemical
- condition.summary: test compound 10 μM (Ex. 182-220), beside Tyk2 1 μM; read-out: Inhibitory rate (%) JAK1 10 μM
metric: inhibition at 10 µM (%)

Example entries begin here.
1) N#Cc1cc(-c2nn(-c3c(F)cccc3F)c3c(Cl)c[nH]c(=O)c23)ccc1N1CCOCC1: 22
2) N#Cc1ccc(-c2nn(C3CCCC3)c3cc[nH]c(=O)c23)cc1: 96
3) NC(=O)Cn1cc(-c2nn(-c3c(F)cccc3F)c3c(Cl)c[nH]c(=O)c23)cn1: 81
4) N#CCNC(=O)c1cc(-c2nn(-c3c(F)cccc3F)c3c(Cl)c[nH]c(=O)c23)cs1: 98
5) O=C(c1cc(-c2nn(-c3c(F)cccc3F)c3c(Cl)c[nH]c(=O)c23)cs1)N1CCOCC1: 94
6) NS(=O)(=O)c1ccc(-c2nn(-c3ccccc3C(F)(F)F)c3cc[nH]c(=O)c23)cc1: 99

[1] COCCNC(=O)COc1ccc(-c2nn(-c3c(F)cccc3F)c3c(Cl)c[nH]c(=O)c23)cc1
[2] CNC(=O)c1ccc(-c2nn(-c3c(F)cccc3F)c3c(Cl)c[nH]c(=O)c23)cc1F
Problem: Please let me know which one, 1 or 2 , has a lower measured inhibition at 10 µM value. Kindly state the label of the option you pick.
Solution: 2
(2: 27%, 1: 74%)

====

- experimental.system: JAK1 (Homo sapiens, UniProt P23458)
- Construct: purchased Invitrogen
- assay.info: JAK1 enzyme inhibition test (LANCE method)
- Format: biochemical
- condition.summary: test compound 10 μM (Ex. 182-220), beside Tyk2 1 μM; read-out: Inhibitory rate (%) JAK1 10 μM
- Protocol: JAK1 Enzyme Inhibition Test JAK1 enzyme inhibitory activity of test compounds was measured by LANCE method (PerkinElmer). First, a test compound diluted with assay buffer (50 mM HEPES (pH=7.5), 10 mM MgCl2, 1 mM EGTA, 2 mM DTT, 0.01% Tween20, 0.01% BSA) was added to 384-well plate at 2 μL each. Then, a JAK1 (Invitrogen) solution and a fluorescence-labeled peptide substrate (ULight-JAK1, PerkinElmer) solution diluted with assay buffer at 187.5 ng/mL and 300 nM, respectively were added at 2 μL each. […]
metric: inhibition at 10 µM (%)

1) O=c1[nH]ccc2c1c(-c1cn[nH]c1)nn2C1CCCC1: 98
2) O=C1OCCN1Cc1ccc(-c2nn(-c3c(F)cccc3F)c3c(Cl)c[nH]c(=O)c23)cc1: 82
3) CCC1(O)CCC(n2nc(-c3ccc(S(N)(=O)=O)cc3)c3c(=O)[nH]ccc32)CC1 (centres unmarked): 99
4) O=c1[nH]cc(Cl)c2c1c(-c1ccc(N3CCCOCC3)cc1)nn2-c1c(F)cccc1F: 73
5) O=c1[nH]cc(Cl)c2c1c(-c1ccc(CN3CCOCC3)cc1)nn2-c1c(F)cccc1F: 72
6) Cn1cc(-c2nn(-c3c(F)cccc3F)c3c(Cl)c[nH]c(=O)c23)cn1: 92
7) NC(=O)Cc1ccc(-c2nn(C3CCCC3)c3cc[nH]c(=O)c23)cc1: 98
8) CC(C)(C#N)c1ccc(-c2nn(-c3c(F)cccc3F)c3c(Cl)c[nH]c(=O)c23)cc1: 83

====

- experimental.system: JAK1 (Homo sapiens)
- Construct: purchased Invitrogen
- assay.info: JAK1 enzyme inhibition test (LANCE method)
- Format: biochemical
- condition.summary: test compound 1 μM; read-out: Inhibitory rate (%) JAK1 1 μM
metric: inhibition at 1 µM (%)

1. N#Cc1c[nH]c(=O)c2c(-c3cnn(CC(N)=O)c3)cn(C3CCCC3)c12: 78

[I] N#Cc1c[nH]c(=O)c2c(-c3ccc(C(N)=O)cc3)cn(C3CCCC3)c12
[II] N#Cc1c[nH]c(=O)c2c(-c3ccccn3)cn(C3CCCC3)c12
[III] NC(=O)c1cc(-c2nn(C3CCCC3)c3c(Cl)c[nH]c(=O)c23)cs1
[IV] O=c1[nH]ccc2c1c(-c1cccc(C(F)(F)F)c1)nn2C1CCCC1
Problem: Order these by inhibition at 1 µM, descending, and give the full ranking. When ranking, write the labels in the order the request describes.
Solution: III, I, IV, II
(III: 90%, I: 62%, IV: 43%, II: 27%)

[P] COC(=O)c1c[nH]c(=O)c2c(-c3csc(C#N)c3)cn(C3CCCC3)c12
[Q] N#Cc1c[nH]c(=O)c2c1c(C1CCCC1)nn2-c1csc(C(=O)O)c1
Problem: Compare P and Q by numeric inhibition at 1 µM and name the larger one. Kindly state the label of the option you pick.
Solution: P

[I] N#Cc1cc(-c2nn(C3CCCC3)c3cc[nH]c(=O)c23)cs1
[II] N#CCc1cccc(-c2cn(C3CCCC3)c3c(C#N)c[nH]c(=O)c23)c1
Problem: Please let me know which one, I or II , has a lower measured inhibition at 1 µM value. Kindly state the label of the option you pick.
Solution: II

====

- experimental.system: JAK1 (Homo sapiens)
- Construct: purchased Invitrogen
- assay.info: JAK1 enzyme inhibition test (LANCE method)
- Type: biochemical
- condition.summary: test compound 10 μM; read-out: Inhibitory rate (%) JAK1 10 μM
metric: inhibition at 10 µM (%)

1) CNC(=O)c1ccc(-c2nn(-c3c(F)cccc3F)c3cc[nH]c(=O)c23)c(Cl)c1 [Example 295]: 24

[I] CC(C)(C)n1nc(N)c2c(=O)[nH]ccc21 [Example 264]
[II] NC(=O)c1ccc(F)c(-c2nn(-c3c(F)cccc3F)c3cc[nH]c(=O)c23)c1 [Example 267]
Problem: Compare I and II by numeric inhibition at 10 µM and name the larger one. Kindly state the label of the option you pick.
Solution: I

[1] NC(=O)c1cc(-c2nn([C@H]3CC[C@@H](N)CC3)c3cc[nH]c(=O)c23)cs1 [Example 298]
[2] CNC(=O)c1ccc(F)c(-c2nn(-c3c(F)cccc3F)c3c(Cl)c[nH]c(=O)c23)c1 [Example 271]
[3] CNC(=O)c1ccc(F)c(-c2nn(-c3c(F)cccc3F)c3cc[nH]c(=O)c23)c1 [Example 272]
Problem: Order these by inhibition at 10 µM, descending, and give the full ranking. When ranking, write the labels in the order the request describes.
Solution: 1, 3, 2
(1: 81%, 3: 12%, 2: -1%)

====

- experimental.system: JAK1 (Homo sapiens, UniProt P23458)
- Construct: purchased Invitrogen
- assay.info: JAK1 enzyme inhibition test (LANCE method)
- Assay type: biochemical
- condition.summary: test compound 10 μM (Ex. 182-220), beside Tyk2 1 μM; read-out: Inhibitory rate (%) JAK1 10 μM
- Method: JAK1 Enzyme Inhibition Test JAK1 enzyme inhibitory activity of test compounds was measured by LANCE method (PerkinElmer). First, a test compound diluted with assay buffer (50 mM HEPES (pH=7.5), 10 mM MgCl2, 1 mM EGTA, 2 mM DTT, 0.01% Tween20, 0.01% BSA) was added to 384-well plate at 2 μL each. Then, a JAK1 (Invitrogen) solution and a fluorescence-labeled peptide substrate (ULight-JAK1, PerkinElmer) solution diluted with assay buffer at 187.5 ng/mL and 300 nM, respectively were added at 2 μL each. […]
metric: inhibition at 10 µM (%)

Example entries begin here.
1. CNC(=O)c1ccc(-c2nn(-c3c(F)cccc3F)c3c(Cl)c[nH]c(=O)c23)cc1 [Example 194]: 67
2. O=C1CCCN1Cc1cc(-c2nn(-c3c(F)cccc3F)c3c(Cl)c[nH]c(=O)c23)cs1 [Example 220]: 98
3. NS(=O)(=O)c1ccc(-c2nn(-c3ccccc3F)c3cc[nH]c(=O)c23)cc1 [Example 213]: 98
4. NC(=O)c1cc(-c2nn([C@H]3CC[C@@H](O)CC3)c3cc[nH]c(=O)c23)cs1 [Example 184]: 100
5. CC(C)(C(N)=O)c1ccc(-c2nn(-c3c(F)cccc3F)c3c(Cl)c[nH]c(=O)c23)cc1 [Example 188]: 84

[I] O=c1[nH]cc(Br)c2c1c(-c1ccc(N3CCOCC3)cc1)nn2-c1c(F)cccc1F [Example 218]
[II] O=c1[nH]cc(Cl)c2c1c(-c1cnn(C3CCOCC3)c1)nn2-c1c(F)cccc1F [Example 205]
[III] NC(=O)c1ccc(-c2nn(-c3c(F)cccc3F)c3c(Cl)c[nH]c(=O)c23)cc1F [Example 215]
Problem: Order these by inhibition at 10 µM, descending, and give the full ranking. When ranking, write the labels in the order the request describes.
Solution: I, II, III

// data source = patent US9371320B2
